# Test system: SN12C renal
# assay summary: NCI-60 one-dose screen, 48 h
# protocol conditions: 10 µM unless noted
Compounds without any hit were thinned out: in the full panel of roughly 83,000, 20% have a hit. Active and inactive are the calls of the source. How the source made its calls: active means growth percent below 10; inactive means the rest.
Answer with one of the outcomes given here: class 1 for active, class 0 for inactive

Consider the following illustrative entries.
[[record]]
compound = "O=C(Cc1ccccc1)NC(O)C(Cl)(Cl)Cl (stereo unspecified)"
discrete_label = "class 0"

[[record]]
compound = "CNC(=O)O/N=C(\\SC)C(=O)N(C)C"
discrete_label = "class 0"


Can you look up the reported call for COc1ccc2c(c1)c(-c1nc(-c3cn(C)c4ncccc34)cs1)cn2CCCCN1CCOCC1 for me?
class 0

Can you look up the reported call for O=C1NC(=O)C(=C/C=C/c2ccccc2)C(=O)N1 for me?
class 1

Can you look up the reported call for Cc1ccccc1-n1c(/C=C\c2ccccn2)nc2ccccc2c1=O for me?
class 0

Can you look up the reported call for NC(=O)Oc1cc(OC(N)=O)cc(N(CCCl)CCCl)c1 for me?
class 0
